# Tested on: OVCAR-3
# experiment notes: NCI tumour cell line growth inhibition, 48 h
Active and inactive are the calls of the source. Cut-off read from the data, not from the text of the source: active = GI50 up to about 1.1 µM and inactive = higher.
Give your call using only these classes: active, inactive

Examples from the recorded data:
CSCCCNC(=O)c1csc(-c2csc(CCN)n2)n1	inactive
CCC1NC(/N=N/c2ccc([N+](=O)[O-])cc2)(P(=O)(OC(C)C)OC(C)C)OC1=O (stereo not given)	inactive
CN(C)/C=N/S(=O)(=O)c1nn2c(C=O)c(-c3ccc(-c4ccc([N+](=O)[O-])cc4)o3)nc2s1	inactive
CC1(C)OCC(C2OC(=O)C(OCc3ccccc3)=C2OCc2ccccc2)O1 (stereo not given)	inactive
CCOC(=O)/C(C#N)=C/c1[nH]c(C)c(C)c1C	inactive
O=c1oc2ccc([N+](=O)[O-])cc2cc1Br	inactive

Call for entry CCOC(=O)N[C@@H]1C2CC(=O)C(O2)[C@@H]1OC (stereo not given in full) :
inactive

* * *

Give measured GI50 for each item. Keep answers brief.
# Tested on: DU-145
# experiment notes: NCI tumour cell line growth inhibition, 48 h
The source made the active and inactive calls. No stated cut-off is given here; in the data, active = GI50 up to about 1.1 µM and inactive = higher.

# count of solved cases: 10
CC(=O)O[C@H]1CC(C)(C)C(=C=C/C(C)=C/C=C/C=C/C=C(C)/C=C2C=C(/C=C/[C@@]34O[C@]3(C)C[C@@H](O)CC4(C)C)C(=O)O/2)[C@](C)(O)C1	33.2 µM (inactive)
C=C1C(=O)O[C@H]2[C@@H](O)[C@H](C)CCC/C(C)=C/CC[C@@]3(C)O[C@@H]3C[C@@H]12	6.03 µM (inactive)
O=C(O)c1nc(-c2ccccn2)c(-c2ccccn2)nc1C(=O)O	2.47 µM (inactive)
O=C1c2cccc3cc([N+](=O)[O-])cc(c23)C(=O)N1O	37.5 µM (inactive)
COC(=O)c1c(C)cccc1C1CN=NC12Cc1cc(C)c(C)cc1C2=O (stereo unspecified)	> 100 µM (inactive)
CC(=O)O[C@@]12[C@@H]3O[C@@]4(O)C[C@]5(C)[C@H]6C[C@@](C(C)C)(O[C@H]5c5ccoc5)O[C@H]1[C@]6(C4)O[C@]2(O)C(C)=CC3(C)C	> 100 µM (inactive)
CC(=O)Oc1ccc2c3c1O[C@H]1[C@H](O)CC[C@@]4(O)[C@@H](C2)N(C)CC[C@]314	> 100 µM (inactive)
C[C@]12CCC(=O)C=C1CC[C@@H]1[C@@H]2CC[C@]2(C)C(=O)[C@H](n3ccnc3)C[C@@H]12	> 100 µM (inactive)
O=CN1CCN(C(=O)c2cc(Cl)cc(Cl)c2)C1=S	16.8 µM (inactive)
CC#CC#C/C=C1/C=CC2(CCCCO2)O1 (stereo unspecified)	> 100 µM (inactive)

// switching to the query compound
Notebook: `Nc1ccc(C(=O)O)cc1` , GI50 read as > 100 µM (inactive)

* * *

# Tested on: OVCAR-3
# experiment notes: NCI tumour cell line growth inhibition, 48 h
Calls of active or inactive are those of the source. Cut-off read from the data, not from the text of the source: active = GI50 up to about 1.1 µM and inactive = higher.
Give your call using only these classes: active, inactive

NCCCN(CCCN)CCCNCc1c2ccccc2c(CNCCCN(CCCN)CCCN)c2ccccc12	inactive

Call for entry COc1c(Cl)c2c(c(OC)c1OC)-c1ccc(OC)c(=O)c(Cl)c1C(NC(C)=O)CC2 (stereo not drawn) :
active

Call for entry `COc1ccc(-c2cc(-c3ccc(Nc4ccnc5cc(C(F)(F)F)ccc45)cc3)[nH]c(=O)c2C#N)c2ccccc12` :
inactive

Call for entry `COc1cnc2cc(C(=O)O)c3ccccc3c2c1` :
inactive

Call for entry `COc1ccc(NC(=O)CC(=O)NN2C(=O)/C(=C/c3ccc(N(CCC#N)CCC#N)cc3C)N=C2/C=C\c2ccccc2)cc1` :
inactive

Call for entry `CN(C)CN(C)c1nc(N(C)C)nc(N(C)CN(C)C)n1` :
inactive

Call for entry `CCSc1s/c(=N/c2ccc(/N=c3\sc(C)c(SC)s3)cc2)sc1-c1ccc(C)cc1` :
inactive

Call for entry `CC(C)C1=Cc2ccc3c(c2C(=O)C1=O)CCCC3` :
inactive

Call for entry `CS(=O)(=O)OCCn1cnc2nc(NC(=O)c3ccccc3)[nH]c(=O)c21` :
inactive

Call for entry NNC(=O)N/N=C1\CN(c2ccc(Cl)cc2Cl)C(=O)C(=O)C1c1nc2ccccc2o1 (stereo not drawn) :
inactive

Call for entry Cn1c2c(c3ccccc31)CCN1C(=O)CCC21 (stereo not drawn) :
inactive

Call for entry `Oc1cc(-c2cccs2)nc2cc3c(cc12)OCO3` :
inactive

Call for entry `COc1cc(/C=[N+](\[O-])c2ccccc2Cl)ccc1OC(=S)S` :
inactive

meta.source: ChEMBL document CHEMBL1201862
